biological target: tetanus neurotoxin (TeNT), authentic tetanus holotoxin (Clostridium tetani, UniProt P04958 2-1315); assay: competition ELISA on TeNT, binder biotinylated; competitor mAb 14F5; further: test concentration or dose not given here
Sequence (P04958 2-457 limits assumed, chain 1 of 2): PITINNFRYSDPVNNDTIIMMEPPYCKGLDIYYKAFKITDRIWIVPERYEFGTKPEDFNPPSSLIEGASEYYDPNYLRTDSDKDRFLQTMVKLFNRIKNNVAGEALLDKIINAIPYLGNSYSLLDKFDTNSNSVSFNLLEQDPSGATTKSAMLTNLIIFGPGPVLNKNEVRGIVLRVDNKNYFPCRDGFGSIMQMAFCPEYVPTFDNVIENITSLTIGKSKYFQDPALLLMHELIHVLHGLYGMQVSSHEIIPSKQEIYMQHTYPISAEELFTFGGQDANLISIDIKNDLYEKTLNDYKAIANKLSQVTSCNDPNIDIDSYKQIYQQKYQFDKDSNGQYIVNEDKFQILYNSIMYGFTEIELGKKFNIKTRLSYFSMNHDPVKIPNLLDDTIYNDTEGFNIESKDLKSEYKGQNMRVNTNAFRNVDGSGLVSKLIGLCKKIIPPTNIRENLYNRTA
Sequence (P04958 458-1315 limits assumed, chain 2 of 2): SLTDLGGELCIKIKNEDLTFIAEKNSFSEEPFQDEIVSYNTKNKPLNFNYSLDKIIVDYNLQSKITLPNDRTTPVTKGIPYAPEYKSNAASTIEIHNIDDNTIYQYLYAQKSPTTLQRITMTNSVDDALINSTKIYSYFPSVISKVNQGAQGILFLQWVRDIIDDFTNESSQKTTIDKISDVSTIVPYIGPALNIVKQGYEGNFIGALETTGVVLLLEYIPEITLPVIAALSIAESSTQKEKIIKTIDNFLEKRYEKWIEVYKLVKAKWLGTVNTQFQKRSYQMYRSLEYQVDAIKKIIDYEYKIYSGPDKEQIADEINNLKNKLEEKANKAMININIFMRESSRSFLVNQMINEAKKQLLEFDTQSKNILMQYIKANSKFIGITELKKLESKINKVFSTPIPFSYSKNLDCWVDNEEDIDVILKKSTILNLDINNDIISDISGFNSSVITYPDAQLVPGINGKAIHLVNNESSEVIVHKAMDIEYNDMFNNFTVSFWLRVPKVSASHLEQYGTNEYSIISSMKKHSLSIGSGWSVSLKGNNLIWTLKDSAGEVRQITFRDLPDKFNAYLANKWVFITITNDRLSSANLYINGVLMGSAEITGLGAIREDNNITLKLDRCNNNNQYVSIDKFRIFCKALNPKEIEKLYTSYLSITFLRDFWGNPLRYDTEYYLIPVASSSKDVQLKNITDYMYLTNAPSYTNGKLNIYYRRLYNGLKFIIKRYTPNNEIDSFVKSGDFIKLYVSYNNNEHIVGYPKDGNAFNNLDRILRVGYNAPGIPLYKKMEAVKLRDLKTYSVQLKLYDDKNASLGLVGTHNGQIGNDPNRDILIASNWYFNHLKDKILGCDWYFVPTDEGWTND
measurement label: % inhibition of binding (%)
Numbers only, in %.

# count of solved cases: 3
binder	value units	% inhibition of binding
SVT15L-3FW4M (VHH) VHH: QVQLQESGGGLVQTGGSLRLSCRASGRAFANYHFGWFRQAPGKDREFVASISWKGGSTYYANFALGRFTSSVDRAESSVYLQMSGLTPEDTATYYCAAHDGGDWNYHTGMDYWGQGTQVTVSS	%	2
SVT08L (VHH) VHH: QVQLQESGGGSVQAGGSLRLSCTASEFSYNDYTIAWFRRAAGKGRVEDGEGVASITTSYDRAYDNRIHYGDSVKGRFTISRDNAKNTVYLQMTNLNPSDTAVYYCGLDITPPGGIGASLTEGFLFDYWGQGTQVTVSS	%	3
SVT22L (VHH) VHH: QVQLQESGGGLVQAGESLRLSCTASGISFDDYAIGWFRQAPGQQRKGVACISKADGRTDYLGSVKGRFTLSTDNTKNTVHLQMNNLKPEDTALYTCAAEYKSCGMGYKPIDYWGQGMQVTVSS	%	0

Next item in the queue.
Data request: Query (binder): SVT02L (VHH) VHH: QVQLQQSGGGSVQAGGSLRLSCVGPQRTFSTYGMGWFRQAPGKEREFVAGINYKGDTTYYADSVKGRFTISRDNAKNTLYLQMDSLKPEDRAVYQCARKGGLGGDYRDAGQYRYWGQGTQVTVSS ; field requested: % inhibition of binding
Data returned: 97

Origin of the recorded values: patent US20240376185A1
